Test system: PSEUDOMONAS AERUGINOSA BMH10
assay method text: In vitro antibacterial activity, agar dilution MIC
Type: cell-based
setup conditions: P. aeruginosa BMH10, BHI agar, 35-37° C., 20 to 24 hours, read-out: MIC
measured metric: MIC (mg/L)
Quick note: give the figure in mg/L, leave out the unit.

Reported MIC for CC[C@H]1OC(=O)[C@H](C)[C@@H](O[C@H]2C[C@@](C)(OC)[C@@H](O)[C@H](C)O2)[C@H](C)[C@@H](O[C@@H]2O[C@H](C)C[C@H](N(C)C)[C@H]2O)[C@](C)(O)C[C@@H](C)[C@@H](N(C)C)[C@H](C)[C@@H](O)[C@@]1(O)CN(C)C was 100
